- System: CP269
- method.summary: qHTS profiling for inhibitors of Plasmodium falciparum proliferation (AID 504749);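 further: 0% = DMSO vehicle and full inhibition = artemisinin control; nearly all actives have a fitted effect of over 60% in size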
- recorded.conditions: P. falciparum in erythrocytes, SYBR Green DNA, 72 h; series mostly up to 28.7 µM
Inconclusive results are not listed. Calls of active or inactive are those of the source. The call rests on the fitted dose curve; in most records, active means well fitted inhibition curve with a large enough effect; inconclusive means small, poorly fitted or top-dose-only effect; inactive means flat fitted curve, though single readings scatter.
In this exercise, the only acceptable responses are 1 (yes) = active, 0 (no) = inactive

INSERT INTO assay_data (compound, assigned_category) VALUES
  ('O=C(O)CO.[NH2-].[NH2-].[Pt+2]', '0 (no)');

Okay, now this compound:
Request: For this compound, state the assay outcome: CN1c2cc(O)c(N=NC(N)=O)cc2CC1S(=O)(=O)O (centres undefined)
Result: 0 (no)

###

- method.summary: qHTS of pediatric cancer cell lines to identify multiple opportunities for drug repurposing: Primary screen for NB1643 cells (AID 1347099); further: nearly all actives have a fitted effect of over 50% in size
- recorded.conditions: NB1643 neuroblastoma viability, CellTiter-Glo luminescence, 48 h; series mostly up to 46 µM
Inconclusive results are not listed. Activity calls are given as the source filed them. Calls come from the whole dose curve; as a rule, active = well fitted cell-killing curve with a large enough effect; inconclusive = small, poorly fitted or top-dose-only effect; inactive = no such curve, though single readings can be large or run the other way.
Result category, one only: active, inactive

Use the examples below as a reference point.
INSERT INTO results (compound, assigned_category) VALUES
  ('CC(=O)OCC(=O)[C@@]1(O)[C@H](C)C[C@H]2[C@@H]3C=C(C)C4=Cc5c(cnn5-c5ccccc5)C[C@]4(C)[C@@H]3[C@@H](O)C[C@@]21C', 'active'),
  ('O=C(O)Cn1nnc(-c2cc(N3CCC(Oc4cc(F)ccc4Br)CC3)no2)n1', 'inactive'),
  ('Cn1c2cc(S(C)=O)sc2c2cnn(Cc3cccc(N)c3)c(=O)c21 (centres undefined)', 'inactive'),
  ('O=C(Nc1cn[nH]c1-c1nc2ccc(CN3CCOCC3)cc2[nH]1)NC1CC1', 'active');

Now consider a different compound.
Request: Record request — test call for `Nc1nccc(Oc2ccc(NC(=O)c3c[nH]cc(-c4ccc(F)cc4)c3=O)cc2F)c1Cl`
Result: active

###

- Test system: Zika virus NS2B-NS3 protease (linked construct)
- method.summary: Primary screen NINDS Rhodamine qHTS for Zika virus inhibitors (AID 1347160); further: on the % scale 0 is the no-effect control and ±100 the full control effect; nearly all actives have a fitted effect of over 55% in size
- recorded.conditions: purified NS2B-NS3 protease, Rhodamine110 substrate fluorescence; series mostly up to 57.1 µM
Records with an inconclusive call do not appear. Calls of active or inactive are those of the source. Calls follow the shape of the dose curve; as a rule, active = well fitted inhibition curve with a large enough effect; inconclusive = small, poorly fitted or top-dose-only effect; inactive = no such curve, though single readings can be large or run the other way.
Choose one outcome from this list and give only that: active, inactive

Illustrative cases are given below, each with its answer.
INSERT INTO measurements (compound, assigned_category) VALUES
  ('Cn1c2ccccc2c2c3c(c4c5ccccc5n(CCC#N)c4c21)CNC3=O', 'inactive'),
  ('CS(=O)(=O)N1CCN(Cc2cc3nc(-c4cccc5[nH]ncc45)nc(N4CCOCC4)c3s2)CC1', 'inactive');

Now examine the next entry.
Request: Fill in: this test's call for `N#CCNC(=O)c1ccc(-c2ccnc(Nc3ccc(N4CCOCC4)cc3)n2)cc1` is ___
Result: inactive

###

- method.summary: qHTS profiling of the MIPE4 collection as inhibitors of Plasmodium falciparum (HB3) proliferation (AID 743347);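 further: plate controls were DMSO vehicle wells for no effect and artemisinin wells for full effect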
- recorded.conditions: P. falciparum HB3 in erythrocytes, SYBR Green DNA, 72 h; at 28.5 µM (top of the series) unless noted
Assign labels as follows, please: satisfied for growth, % of control below 10%; not satisfied for growth, % of control equal to or exceeding 10%.

Take a look at these entries with their results.
INSERT INTO results (smiles_text, assigned_category) VALUES
  ('C[C@@H](Oc1cc(-c2cnn(C3CCNCC3)c2)cnc1N)c1c(Cl)ccc(F)c1Cl', 'satisfied'),
  ('CC(C)c1noc(N2CCC(COc3ccc(-c4ccc(S(C)(=O)=O)cc4)nc3)CC2)n1', 'not satisfied'),
  ('CCCCCCCCCC(=O)N[C@@H](Cc1c[nH]c2ccccc12)C(=O)N[C@H](CC(N)=O)C(=O)N[C@@H](CC(=O)O)C(=O)N[C@@H]1C(=O)NCC(=O)N[C@@H](CCCN)C(=O)N[C@@H](CC(=O)O)C(=O)N[C@H](C)C(=O)N[C@@H](CC(=O)O)C(=O)NCC(=O)N[C@H](CO)C(=O)N[C@@H]([C@@H](C)CC(=O)O)C(=O)N[C@@H](CC(=O)c2ccccc2N)C(=O)O[C@@H]1C', 'not satisfied');

Request: Strictly below 10%: is that where growth, % of control of `CNC(=O)c1ccc(-c2cnc3ncc(Cc4ccc5ncccc5c4)n3n2)cc1F` sits?
Result: not satisfied

Request: What do you have for `Nc1ncnc2c1c(-c1cnc3[nH]ccc3c1)nn2C1CCCC1` ?
Result: satisfied

###

- method.summary: qHTS of pediatric cancer cell lines to identify multiple opportunities for drug repurposing: Confirmatory screen for NB1643 cells (AID 1347109); further: nearly all actives have a fitted effect of over 45% in size
- recorded.conditions: NB1643 neuroblastoma cell viability; series mostly up to 45.9 µM
Inconclusive results are not listed. Active and inactive are the calls of the source. The call rests on the fitted dose curve; in most records, active means well fitted cell-killing curve with a large enough effect; inconclusive means small, poorly fitted or top-dose-only effect, or effect the other way; inactive means no such curve, though single readings can be large or run the other way.
Assign a class; possible classes are active, inactive

Use these answered entries as a reference point.
INSERT INTO measurements (smiles_text, assigned_category) VALUES
  ('CS(=O)(=O)N1CCN(Cc2cc3nc(-c4cccc5[nH]ncc45)nc(N4CCOCC4)c3s2)CC1', 'active'),
  ('CC[C@@H]1C(=O)N(C)c2cnc(Nc3ccc(C(=O)NC4CCN(C)CC4)cc3OC)nc2N1C1CCCC1', 'active'),
  ('COc1ccc(OC)c(-c2nnc3ccc(-c4ccc(OC)c(O[C@@H]5CCOC5)c4)nn23)c1', 'active'),
  ('COc1cccc2c(NCc3ccccc3)nc(-n3c(N)nc4ccccc43)nc12', 'active');

Attention now shifts to the item below.
Request: // outcome(item) with item = `CC=CC1=C(C(=O)O)N2C(=O)[C@H](NC(=O)[C@H](N)c3ccc(O)cc3)[C@@H]2SC1`
Result: inactive

###

- Test system: Zika virus NS2B-NS3 protease (unlinked complex)
- method.summary: Confirmatory screen GU AMC qHTS for Zika virus inhibitors (AID 1347153); further: nearly all actives have a fitted effect of over 70% in size
- recorded.conditions: Recombinant NS2B-NS3 protease, AMC substrate fluorescence; series mostly up to 57.1 µM
- Text: Assay Submitters (PI): Avindra Nath, Ph.D., National Institute of Neurological Disorders and Stroke (NINDS), Bethesda, MD Radhakrishnan Padmanabhan, Ph.D., Georgetown University (GU), Washington D.C. Zika Virus causes congenital defects, including microcephaly and is associated with Guillain-Barre syndrome, eningoencephalitis and myelitis in infected adult. […]
Inconclusive results are not listed. Activity calls are given as the source filed them. Calls come from the whole dose curve; as a rule, active = well fitted inhibition curve with a large enough effect; inconclusive = small, poorly fitted or top-dose-only effect; inactive = flat fitted curve, though single readings scatter.
Form entry, call: pick from Y for active, N for inactive

Request: Record lookup: outcome of this test for `COc1cc(C(=O)NS(=O)(=O)c2ccccc2C)ccc1Cc1cn(C)c2ccc(NC(=O)OC3CCCC3)cc12` ?
Result: Y

Request: Consider next the molecule `Cc1cc(N2CCOCC2)cc2[nH]c(-c3c(NC[C@@H](O)c4cccc(Cl)c4)cc[nH]c3=O)nc12` in the same way.
Result: N

Request: Can you handle `CCS(=O)(=O)c1cccc(-c2cc(C(=O)NC3CCN(C)CC3)c(C)c3[nH]c4ncc(C)cc4c23)c1` next?
Result: Y

Request: Field entry: `Cc1ccc(C(=O)Nc2cccc(C(F)(F)F)c2)cc1-c1ccc2nc(NCCN3CCOCC3)ncc2c1`
Result: N

###

Listed here: items and their measured Potency.
- method.summary: Quantitative High-Throughput drug screen in 47 multiple myeloma cell lines against the NCATS MIPE library collection: OPM1_PLB cell viability assay (AID 1918989); further: potency means the concentration at half of the fitted maximal effect; nearly all actives have a fitted effect of over 40% in size
- recorded.conditions: CellTiter-Glo, 48 h; series mostly up to 45.8 µM
Records with an inconclusive call do not appear. Calls of active or inactive are those of the source. The call rests on the fitted dose curve; in most records, active means well fitted cell-killing curve with a large enough effect; inconclusive means small, poorly fitted or top-dose-only effect, or effect the other way; inactive means no such curve, though single readings can be large or run the other way.

Request: I'd like to know its Potency. The compound in question is `Cc1ccc(C(=O)Nc2cccc(C(F)(F)F)c2)cc1-c1ccc2nc(NCCN3CCOCC3)ncc2c1`
Result: 7430 nM (active)

Request: Cool, now `CC1=C(CO)C(=O)O[C@@H]([C@@H](C)[C@H]2CC[C@H]3[C@@H]4C[C@H]5O[C@]56[C@@H](O)C=CC(=O)[C@]6(C)[C@@H]4CC[C@]23C)C1`
Result: 132 nM (active)

Request: What do you get for `CC=C1NC(=O)[C@H]2CSSCCC=C[C@H](CC(=O)N[C@H](C(C)C)C(=O)N2)OC(=O)[C@H](C(C)C)NC1=O` ?
Result: 13.2 nM (active)

Request: # iterate: `CC[C@@H]1C(=O)N(C)c2cnc(Nc3ccc(C(=O)NC4CCN(C)CC4)cc3OC)nc2N1C1CCCC1`
Result: 93.5 nM (active)

Request: Also, `Nc1ncnc2c1c(-c1cnc3[nH]ccc3c1)nn2C1CCCC1` please.
Result: 590 nM (active)

Request: Record: `CCn1cc(-c2ccnc3[nH]c(-c4cccc(CN(C)C)c4)cc23)c(-c2ccc(NC(=O)N(C)C)cc2)n1`
Result: 2960 nM (active)

Request: Also, `CCn1nnc2c(N3CCOCC3)nc(-c3ccc(NC(=O)Nc4ccc(C(=O)N5CCN(C)CC5)cc4)cc3)nc21` please.
Result: 5.9 nM (active)

Request: Next entry: `O=C(C=Cc1cccc(S(=O)(=O)Nc2ccccc2)c1)NO`
Result: 1910 nM (active)
